Each item that follows carries a reported Ki.
target: Aromatase (Homo sapiens, UniProt P11511); assay: Inhibition constant for human placental Cytochrome P450 19A1
Sequence (P11511 whole entry): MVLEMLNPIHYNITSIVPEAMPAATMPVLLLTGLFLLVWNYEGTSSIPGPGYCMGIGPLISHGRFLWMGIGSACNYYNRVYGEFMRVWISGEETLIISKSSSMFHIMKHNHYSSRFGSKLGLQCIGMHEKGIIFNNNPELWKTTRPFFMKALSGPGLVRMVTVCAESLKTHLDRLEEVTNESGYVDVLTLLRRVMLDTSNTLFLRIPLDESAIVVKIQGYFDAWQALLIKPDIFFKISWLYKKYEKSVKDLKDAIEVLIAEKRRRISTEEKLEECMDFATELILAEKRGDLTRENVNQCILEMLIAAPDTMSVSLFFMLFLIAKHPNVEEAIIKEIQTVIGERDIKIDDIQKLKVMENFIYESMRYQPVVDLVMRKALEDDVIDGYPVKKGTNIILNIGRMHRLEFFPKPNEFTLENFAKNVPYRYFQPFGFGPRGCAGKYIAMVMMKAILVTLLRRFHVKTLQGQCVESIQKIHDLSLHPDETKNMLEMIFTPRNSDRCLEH
State just the number; it will be interpreted in nM.

C[C@]12CCC(=O)C(SCC#N)=C1CC[C@@H]1[C@@H]2CC[C@]2(C)C(=O)CC[C@@H]12; 169

Note: attention shifts to another entry.
Request: Ki, test system Aromatase (Homo sapiens, UniProt P11511), entry C[C@]12CCC(=O)C(SCF)=C1CCC1C2CC[C@]2(C)C(=O)CCC12 (some centres not stated)
30

---

Each item that follows carries a reported pIC50.
target: Aromatase (Homo sapiens, UniProt P11511); experiment: Inhibition of cytochrome P450 19A1
// pIC50 is dimensionless: -log10 of concentration (M)

See these solved cases before continuing.
C[C@]12CCC(=O)C(SCCl)=C1CCC1C2=CC[C@]2(C)C(=O)CCC12 (stereo partly drawn); 6.07
CSCSC1=C2CCC3C(CC[C@]4(C)C(=O)CCC34)[C@@]2(C)CCC1=O (stereo partly drawn); 5.92

Request: pIC50, test system Aromatase (Homo sapiens, UniProt P11511), entry C[C@]12CCC(=O)C(SCCl)=C1CCC1C2CC[C@]2(C)C(=O)CCC12 (stereo partly drawn)
6.03
